# Tested on: lambsquarters
# TEST: Test B pre-/postemergence herbicide test
# Assay type: in vivo, Chenopodium album
# CONDITION_PARAMETERS: postemergence, 125 g ai/ha; visual rating, scale 0 (no effect) to 100 (complete control)
MEASURE_NAME: Lambsquarters plant response rating
Respond using a number only.

Worked examples, 4 molecules total:
[
  {
    "MOLECULE": "CCn1nc(C(C)(C)C)cc1C(=O)Nc1cccc(C(=O)NC(C)C)c1 [Compound 51]",
    "MEASURE_NAME": "Lambsquarters plant response rating",
    "RESULT": 80
  },
  {
    "MOLECULE": "CCn1nc(C(C)(C)C)cc1C(=O)Nc1ccnc(C(=O)N2CC=CC2)c1 [Compound 282]",
    "MEASURE_NAME": "Lambsquarters plant response rating",
    "RESULT": 10
  },
  {
    "MOLECULE": "CCn1nc(C(C)(C)C)cc1C(=O)Nc1cncc(C(=O)N2CC=CC2)c1 [Compound 260]",
    "MEASURE_NAME": "Lambsquarters plant response rating",
    "RESULT": 10
  },
  {
    "MOLECULE": "CCCCOc1cccc(NC(=O)c2cc(C(C)(C)C)nn2CC)c1 [Compound 137]",
    "MEASURE_NAME": "Lambsquarters plant response rating",
    "RESULT": 80
  }
]

Attention now turns to another entry.
Quote Lambsquarters plant response rating reported for CCn1nc(C(C)(C)C)cc1C(=O)Nc1cc(C(=O)NCC2CC2)ccn1 [Compound 155] please.
70

---

We begin with a simple list: items and their reported Plant response rating, Barley, Winter.
# Tested on: winter barley
# TEST: Test C postemergence herbicide test
# Type: in vivo, Hordeum vulgare
# CONDITION_PARAMETERS: postemergence; 62 g ai/ha; scale 0 to 100 (0 no effect, 100 complete control)
Answer with the value's number alone.

The examples below pair each entry with its known result.
[
  {
    "MOLECULE": "CCN1N=C(C(C)(C)C)CC1C(=O)Nc1cc(C(=O)N(C)C)ccc1F (stereo not shown)",
    "RESULT": 0
  },
  {
    "MOLECULE": "CCOC(=O)c1cccc(NC(=O)c2cc(C3(C)CC3)nn2CC)c1",
    "RESULT": 35
  }
]

Please indicate Plant response rating, Barley, Winter recorded for CCn1nc(C(C)(C)C)cc1C(=O)Nc1cccc(OS(=O)(=O)CC)c1
30

Respond only with Plant response rating, Barley, Winter recorded for C=CCNC(=O)c1ccc(F)c(NC(=O)c2cc(C(C)(C)C)nn2CC)c1
30

---

# Test system: lambsquarters
# TEST: Test B pre-/postemergence herbicide test
# Assay type: in vivo, Chenopodium album
# CONDITION_PARAMETERS: postemergence, 125 g ai/ha; visual rating, scale 0 (no effect) to 100 (complete control)
# Experimental: […] At the same time, plants selected from these crop and weed species and also blackgrass (Alopecurus myosuroides Huds.), wheat (Triticum aestivum L.) and wild oat (Avena fatua L.) were treated with postemergence applications of test chemicals formulated in the same manner. […] Treated plants and controls were maintained in a greenhouse for 13 to 15 days, after which time all species were compared to controls and visually evaluated. […]
MEASURE_NAME: Lambsquarters plant response rating
Output spec: single numeric token, no unit.

[
  {
    "CHEMICAL_STRING": "CC(=O)c1cccc(NC(=O)c2cc(C(C)(C)C)nn2CCF)c1",
    "MEASURE_NAME": "Lambsquarters plant response rating",
    "RESULT": 0
  },
  {
    "CHEMICAL_STRING": "CCNC(=O)c1ccnc(NC(=O)c2nn(C(C)(C)C)cc2CC)c1",
    "MEASURE_NAME": "Lambsquarters plant response rating",
    "RESULT": 50
  },
  {
    "CHEMICAL_STRING": "CCn1nc(C(C)(C)C)cc1C(=O)Nc1cccc(C(=O)NCC2CC2)c1",
    "MEASURE_NAME": "Lambsquarters plant response rating",
    "RESULT": 80
  },
  {
    "CHEMICAL_STRING": "C#CCNC(=O)c1cccc(NC(=O)c2cc(C(C)(C)C)nn2CC)n1",
    "MEASURE_NAME": "Lambsquarters plant response rating",
    "RESULT": 80
  }
]

Tell me measured Lambsquarters plant response rating for CCn1nc(C(C)(C)C)cc1C(=O)Nc1cc(C(=O)NC(C)(C)C)ccn1 please.
80

---

# Test system: cocklebur
# TEST: Test B pre-/postemergence herbicide test
# Format: in vivo, Xanthium strumarium
# CONDITION_PARAMETERS: postemergence, 125 g ai/ha; visual rating, scale 0 (no effect) to 100 (complete control)
MEASURE_NAME: Cocklebur plant response rating
Reply with just the number.

Worked cases, Cocklebur plant response rating given:
[
  {
    "MOLECULE": "CCn1nc(C(C)(C)C)cc1C(=O)Nc1cc(C(=O)NC(C)(C)C)ccn1 [Compound 154]",
    "Cocklebur plant response rating": 60
  },
  {
    "MOLECULE": "CCN(CC)C(=O)c1cccc(NC(=O)c2nn(C(C)(C)C)cc2Cl)c1 [Compound 218]",
    "Cocklebur plant response rating": 0
  },
  {
    "MOLECULE": "CC(=NO)c1cccc(NC(=O)c2nn(C(C)(C)C)cc2C(F)(F)F)c1 [Compound 171]",
    "Cocklebur plant response rating": 0
  },
  {
    "MOLECULE": "CC(=NO)c1cccc(NC(=O)c2cc(C(C)(C)C)nn2C)c1 [Compound 107]",
    "Cocklebur plant response rating": 0
  }
]

The record that follows has no Cocklebur plant response rating shown yet.
Using known records, supply Cocklebur plant response rating for CC(=O)c1cccc(NC(=O)c2cc(C(C)(C)C)nn2CCF)c1 [Compound 128]
90

---

We begin with a simple list: items and their reported Plant response rating, Crabgrass, Large.
# System: large crabgrass
# TEST: Test C pre-/postemergence herbicide test
# Format: in vivo, Digitaria sanguinalis
# CONDITION_PARAMETERS: 250 g ai/ha; scale 0-100; preemergence
Please reply with the value in numeric form only.

Worked examples follow.
[
  {
    "MOLECULE": "CCN(CC)C(=O)c1cccc(NC(=O)c2sc(C(C)(C)C)nc2C)c1",
    "TARGET_ENTITY": "large crabgrass",
    "Plant response rating, Crabgrass, Large": 90
  },
  {
    "MOLECULE": "CCN1N=C(C(C)(C)C)CC1C(=O)Nc1cc(C(=O)N2CC=CC2)ccc1F (racemic)",
    "TARGET_ENTITY": "large crabgrass",
    "Plant response rating, Crabgrass, Large": 100
  }
]

Output measured Plant response rating, Crabgrass, Large for this item: Cc1nn(C(C)(C)C)nc1C(=O)Nc1cccc(C(=S)N(C)C)c1
100

Note down Plant response rating, Crabgrass, Large recorded for CCNC(=O)c1ccc(F)c(NC(=O)c2cc(C3(C)CC3)nn2CC)c1
100

Dear colleague, please send me the reported Plant response rating, Crabgrass, Large for CCc1nn(C(C)C)nc1C(=O)Nc1cccc(C(=O)N(C)CC)c1 when you can.
100

---

# Test system: small flower umbrella sedge
# TEST: Test B flooded paddy test
# Format: in vivo, Cyperus difformis
# CONDITION_PARAMETERS: 1000 g ai/ha, scale 0 to 100 (0 no effect, 100 complete control)
MEASURE_NAME: Sedge, Umbrella plant response rating

[
  {
    "MOLECULE": "CCNC(=O)c1ccc(F)c(NC(=O)c2cc(C3(C)CC3)nn2CC)c1 [Compound 300]",
    "Sedge, Umbrella plant response rating": 90
  },
  {
    "MOLECULE": "CCN(CC)C(=O)c1ccc(F)c(NC(=O)C2CC(C(C)(C)C)=NN2CC)c1 (racemic) [Compound 308]",
    "Sedge, Umbrella plant response rating": 90
  }
]

Retrieve Sedge, Umbrella plant response rating measured for C=CCNC(=O)c1ccc(F)c(NC(=O)c2cc(C(C)(C)C)nn2CC)c1 [Compound 430] and print it.
80

Report Sedge, Umbrella plant response rating for CCOC(=O)c1cccc(NC(=O)c2cc(C3(C)CC3)nn2CC)c1 [Compound 295]
80

Name the recorded Sedge, Umbrella plant response rating of the molecule listed here: Cc1nn(C(C)(C)C)nc1C(=O)Nc1cccc(C(=S)N(C)C)c1 [Compound 419]
80

---

# Tested on: barnyardgrass
# TEST: Test C flooded paddy test
# Type: in vivo, Echinochloa crus-galli
# CONDITION_PARAMETERS: 62 g ai/ha, scale 0 to 100 (0 no effect, 100 complete control)
MEASURE_NAME: Barnyardgrass plant response rating

Observe how each entry below is paired with its result.
[
  {
    "MOLECULE": "CCN(C(C)=O)C(=O)c1ccc(F)c(NC(=O)c2cc(C(C)(C)C)nn2CC)c1 [Compound 413]",
    "TARGET_ENTITY": "barnyardgrass",
    "Barnyardgrass plant response rating": 0
  },
  {
    "MOLECULE": "CCNC(=O)c1cc(NC(=O)c2cc(C(C)(C)C)nn2CC)c(F)cc1F [Compound 252]",
    "TARGET_ENTITY": "barnyardgrass",
    "Barnyardgrass plant response rating": 0
  },
  {
    "MOLECULE": "CCN(CC)C(=O)c1ccc(F)c(NC(=O)C2CC(C(C)(C)C)=NN2CC)c1 (racemic) [Compound 308]",
    "TARGET_ENTITY": "barnyardgrass",
    "Barnyardgrass plant response rating": 0
  }
]

Using the record for CCc1nn(C(C)(C)C)cc1C(=O)Nc1cccc(C(C)=O)c1 [Compound 187] , state its measured Barnyardgrass plant response rating.
0

Please supply the value of reported Barnyardgrass plant response rating for the item CCn1nc(C(C)(C)C)cc1C(=O)Nc1nc(C(=O)N2CC=CC2)ccc1F [Compound 281]
0

Give recorded Barnyardgrass plant response rating. CCN1N=C(C(C)(C)C)CC1C(=O)Nc1cc(C(=O)N2CC=CC2)ccc1F (racemic) [Compound 310]
35

Name the recorded Barnyardgrass plant response rating of the item CCNC(=O)c1ccc(F)c(NC(=O)C2CC(C(C)(C)C)=NN2CC)c1 (racemic) [Compound 269] in your answer.
45

Identify the reported Barnyardgrass plant response rating for the following entry. CCNC(=O)c1cccc(NC(=O)c2cc(C(C)(C)C)nn2CC(F)(F)F)c1 [Compound 31]
0

Answer with the recorded Barnyardgrass plant response rating of CCn1nc(C(C)(C)C)cc1C(=O)Nc1cncc(C(=O)N2CC=CC2)n1 [Compound 290] only.
0

Values were extracted from patent US20060069132A1.
